- Test system: Jurkat HIV-luciferase clones
- Test description: Jurkat latency reversal assay
- Assay type: cell-based
- Measurement conditions: Homo sapiens, 48 h; Jurkat latency reversal assay potency; read-out: Jurkat pEC50 (converted)
Observed property: EC50

# example entries with known answers
Chemical string	Observed property	Result
Cc1ccc(Cc2cnc3c(c2)N(C(=O)CN2C[C@@H](C)NC[C@@H]2CN2CCO[C@H](COc4cccc(OC[C@@H]5CN(C[C@H]6CN[C@H](C)CN6CC(=O)N6CC(C)(C)c7ncc(Cc8ccc(C)cc8)cc76)CCO5)c4)C2)CC3(C)C)cc1	EC50	12.6 to 63.1 nM
C[C@@H]1CN(CC(=O)N2CC(C)(C)c3ncc(Cc4ccc(F)cc4)cc32)[C@@H](CN2CCN(S(=O)(=O)c3cccc(S(=O)(=O)N4CCN(C[C@H]5CN[C@H](C)CN5CC(=O)N5CC(C)(C)c6ncc(Cc7ccc(F)cc7)cc65)[C@H](C)C4)c3)C[C@H]2C)CN1	EC50	0.49 to 12.6 nM

Problem: Name the reported EC50 value associated with the molecule Cc1c(OC[C@@H]2CN(C[C@H]3CN[C@H](C)CN3CC(=O)N3CC(C)(C)c4[nH]c(=O)c(Cc5ccc(F)cc5)cc43)CCO2)cccc1OC[C@@H]1CN(C[C@H]2CN[C@H](C)CN2CC(=O)N2CC(C)(C)c3[nH]c(=O)c(Cc4ccc(F)cc4)cc32)CCO1
Solution: 0.49 to 12.6 nM

Problem: Name the reported EC50 value associated with the molecule C[C@@H]1CN(CC(=O)N2CC(C)(C)c3[nH]c(=O)c(Cc4ccc(F)cc4)cc32)[C@@H](CN2CCO[C@H](COc3ccccc3OC[C@@H]3CN(C[C@H]4CN[C@H](C)CN4CC(=O)N4CC(C)(C)c5[nH]c(=O)c(Cc6ccc(F)cc6)cc54)CCO3)C2)CN1
Solution: 63.1 to 316 nM

// data source = patent US20250326771A1
